target of assay: MyD88^TIR (Homo sapiens, UniProt Q99836)
Construct: MyD88 (residues 148–296); 6xHis; made in house; host or cells: E. coli BL21 (DE3)
Sequence (Q99836 148-296): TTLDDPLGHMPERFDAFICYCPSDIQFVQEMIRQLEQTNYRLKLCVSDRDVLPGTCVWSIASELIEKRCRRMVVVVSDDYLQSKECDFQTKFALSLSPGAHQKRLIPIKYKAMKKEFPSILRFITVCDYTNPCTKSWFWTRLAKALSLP
protocol details: T‐Surf phage library (P8 and P3) selection against MyD88^TIR, four rounds, NGS read counts
Format: binding
experimental parameters: P3_MyD88: rank by count before grouping
readout kind: Rank (before)

For orientation, consider the following solved cases.
monomer sequence | Rank (before)
DHHLDLPRGKAIKPEIL | 953
NELCMCGAAKRIAWW | 1238
SNFREGLWRQQELSKK | 3282
SELRVVDDGRVSPMAM | 3019
SSFREGLWCLRELSKK | 3156
NGHESEIIKEIVDTM | 3365
NQCRNALTAAANLSGC | 3467
DHHLDLPRGKAIKPAILR | 2019

A. SELSVVDDGSVSPLGM
B. GIFREGLWRLLELSKK
Of the pair A and B , name the member with the lesser recorded Rank (before). Reply briefly: the label of your chosen item.
B

I. YTALTNSGFPTFRDHD
II. RERPVGAQRGVRSLAT
Compare I and II and name the one whose reported Rank (before) is smaller. Selection: enter the item's label.
I

----------
target of assay: MAL^TIR (Homo sapiens, UniProt P58753)
Construct: MAL (residues 79–221); 6xHis; made in house; host or cells: E. coli BL21 (DE3)
Sequence (P58753 79-221): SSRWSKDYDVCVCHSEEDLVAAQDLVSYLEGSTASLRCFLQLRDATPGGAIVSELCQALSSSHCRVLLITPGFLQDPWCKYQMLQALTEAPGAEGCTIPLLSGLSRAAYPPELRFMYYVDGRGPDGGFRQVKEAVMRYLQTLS
protocol details: T‐Surf phage library (P8 and P3) selection against MAL^TIR, four rounds, NGS read counts
Assay type: binding
experimental parameters: P3 library, selection against MAL TIR; rank by count after grouping
readout kind: P3_MAL Rank (after)

monomer sequence | numeric value
LKAESWRQAPEKAGKL | 259
PNLRPQVLNYLIRTKT | 208
LQNHCKLALTKVANLV | 230
SSFREGLWRLRGLSKK | 232
WQFHLRLRMHELLQKM | 245
SPRKNLVSNLIEEFTR | 252

A. RGFLSHLRHHLPAKEH
B. HQAFTGHLHRYLVQRGV
P3_MAL Rank (after) comparison. Which is larger, A or B ? Identify your pick by its label.
A

----------
target of assay: MAL^TIR (Homo sapiens, UniProt P58753)
Construct: MAL (residues 79–221); 6xHis; made in house; host or cells: E. coli BL21 (DE3)
protocol details: T‐Surf phage library (P8 and P3) selection against MAL^TIR, four rounds, NGS read counts
Type: binding
experimental parameters: P3 library, 4R selection against MAL, rank before grouping
readout kind: P3_MAL Rank (before)

Recorded results for 5 sequences are shown here.
monomer sequence | numeric value
HQAFWERLWAKMQAPI | 2860
PNLRTKVMNYLIRTKP | 2733
KMQKWKDALYEAANE | 3674
RGFLSHLSHPLQAKDP | 2391
NQWKLALTKVANLV | 3421

A. YLKWKEALHQFHSWV
B. NQAFWNRLWAKLKPLT
Which value of P3_MAL Rank (before) is numerically greater: that of A or that of B ? Could you answer with the label of the item you picked?
B

1. KPSVSGPEKSWHFYL
2. GSIKWRDQHTVHPQSS
// which entry reports the smaller P3_MAL Rank (before), 1 or 2 ? # answer = label of selected item
2

I. NQWRNALTATANLSGL
II. CFLQNLCYALTYRPAT
III. EWIREQMSPALKERLP
Endpoint returns the given sequences ordered by ascending P3_MAL Rank (before). Please, when replying, give the labels in the order that was requested.
II, III, I
(II: 1215, III: 2023, I: 3390)

1. KWFWDTLTYAPNLSPH
2. YAFTSSLHRYLVQRGV
3. RGFTSHLYHRIQRNSN
Please list these sequences in decreasing order of P3_MAL Rank (before). Lab note: record answer as labels in requested order.
1, 3, 2
(1: 3487, 3: 2419, 2: 1481)

----------
target of assay: MyD88^TIR (Homo sapiens)
Construct: MyD88 (residues 148–296); 6xHis; made in house; host or cells: E. coli BL21 (DE3)
protocol details: T‐Surf phage library (P8 and P3) selection against MyD88^TIR, four rounds, NGS read counts
Type: binding
experimental parameters: P8_MyD88: rank by NGS read count before grouping
readout kind: Rank (before)

monomer sequence | Rank (before)
LGYHWIEWEDFVVIED | 3293
DIADEDLPYLIRLLYSL | 3056
PQDLGWYYERLVSLIL | 3421
DPQERGCQYQRLVGML | 3019

----------
target of assay: MyD88^TIR (Homo sapiens, UniProt Q99836)
Construct: MyD88 (residues 148–296); 6xHis; made in house; host or cells: E. coli BL21 (DE3)
protocol details: T‐Surf phage library (P8 and P3) selection against MyD88^TIR, four rounds, NGS read counts
Assay type: binding
experimental parameters: P3 library, 4R selection against MyD88, rank before grouping
Protocol: T‐Surf libraries were screened against the immobilized TIR domains of two major human TLR adaptor proteins, MAL^TIR and MyD88^TIR, allowing cross‐species selection of TIR‐binding motifs with 190 946 TIR‐derived peptides in a single binding assay (Scheme 1). Enriched phage pools from the fourth round of selection were analyzed using NGS after barcoding the peptide‐coding regions of the phage pools. […]
readout kind: P3_MyD88 Rank (before)

As a guide, the following entries are already answered.
monomer sequence | numeric value
SENYATSPWALMNWC | 2985
SENYATSPWAPELLR | 2990
SENMRPARGRWMNWC | 3000

a. SELCVVAEGSVSPLDM
b. YAFTGHLHRYLVLRGA
Hello, I am sorting some records. Could you say if a or b has the smaller P3_MyD88 Rank (before) value? I would appreciate it if you answered with the label of your choice.
b

a. NELVHVWSSKANTWW
b. DTKLKEGDCVPPELLR
c. FLSYRALEKRFGRLA
# rank by P3_MyD88 Rank (before), ascending (min first) # respond with the labels, arranged in the requested order
c, b, a

I. SSIREGLWRQLELSKK
II. YTSLTNRGFLIFRDND
Which numeric P3_MyD88 Rank (before) is bigger, that of I or that of II ? Could you answer with the label of the item you picked?
I
(I: 3277, II: 1624)

a. KEPENYRFALHERDFP
b. LIRAPSVHDFRGFVGI
Between a and b , which one shows the smaller P3_MyD88 Rank (before) number? To answer, give the label that identifies your chosen option.
b
(b: 2369, a: 3685)

A. PSEVRKQTGSLAKAAL
B. YTALTNSGFHTFRVNV
Return label of the item with the larger P3_MyD88 Rank (before). Candidates: A , B . // return label of chosen record
A

----------
target of assay: MAL^TIR (Homo sapiens)
Construct: MAL (residues 79–221); 6xHis; made in house; host or cells: E. coli BL21 (DE3)
protocol details: T‐Surf phage library (P8 and P3) selection against MAL^TIR, four rounds, NGS read counts
Type: binding
experimental parameters: P8 library, selection against MAL, rank before grouping
readout kind: P8_MAL Rank (before)

monomer sequence | readout kind | numeric value
DFLSHLIEAFSRMHIN | P8_MAL Rank (before) | 1972
AFLGTFLIKLMHATIY | P8_MAL Rank (before) | 1906
AFLDPFLITLIQASNF | P8_MAL Rank (before) | 1908
AFLYTFDQSDPSDQF | P8_MAL Rank (before) | 1822
ELFLDQVLAVLVKPTM | P8_MAL Rank (before) | 2042
AFLCDQLSTLMDPPTF | P8_MAL Rank (before) | 1805
AFLYTVLINLTHTTYF | P8_MAL Rank (before) | 1886
AFYWAQLNSVLRDTTM | P8_MAL Rank (before) | 1785
LFFWARLKNVLGSAGS | P8_MAL Rank (before) | 2064

----------
target of assay: MyD88^TIR (Homo sapiens)
Construct: MyD88 (residues 148–296); 6xHis; made in house; host or cells: E. coli BL21 (DE3)
protocol details: T‐Surf phage library (P8 and P3) selection against MyD88^TIR, four rounds, NGS read counts
Type: binding
experimental parameters: P8_MyD88: rank by count after grouping
readout kind: Rank (after)

monomer sequence | target of assay | Rank (after)
YASSSWALNELPRILY | MyD88^TIR (Homo sapiens) | 389
DPQELDGFYERLVSLF | MyD88^TIR (Homo sapiens) | 401
YASSSWYLDALVQILHARELF | MyD88^TIR (Homo sapiens) | 388
YASSSWYLDELLQIA | MyD88^TIR (Homo sapiens) | 402

----------
target of assay: MyD88^TIR (Homo sapiens)
Construct: MyD88 (residues 148–296); 6xHis; made in house; host or cells: E. coli BL21 (DE3)
protocol details: T‐Surf phage library (P8 and P3) selection against MyD88^TIR, four rounds, NGS read counts
Format: binding
experimental parameters: P3_MyD88: rank by count before grouping
readout kind: Rank (before)

monomer sequence | Rank (before)
LKVESCRQALEKTGKL | 2473
AVDKETDKIQTPLKAQ | 1919
NELVHVWCCKANSQAG | 3407
LQNQWKLALTKVANLSGW | 680
NQWRNSRTAAANLSGW | 3476

A. DHHLDLPSGKAIKPDILG
B. SSFLQKLRRRLELSIV
Could you determine which record has the numerically smaller Rank (before)? Candidates: A and B Bench note: the answer is the label of the chosen record.
A

A. AVDKGIDKIQTPLKNA
B. YAFTGHLHRYLVQHCE
Thinking about recorded Rank (before) values, which is higher, A or B ? # respond with the chosen item's label
A
(A: 1896, B: 841)
